- System: human APOE RNA
- testSummary: Activity in APOE C57BL/6NTac-Apoeem7250 knock-in mice, single ICV bolus, 4 weeks (Example 10)
- Type: in vivo
- experimentalSetup: Spinal Cord; C57BL/6NTac-Apoeem7250 knock-in mice, single ICV bolus 300 μg, 4 weeks (Table 22)
Strand notation (5' to 3'): a small letter for the sugar, then the base; units joined by * are phosphorothioate-linked, units joined directly phosphodiester-linked; [ ] holds rarer units or linkages, { } end groups; capitals alone tell only the bases. [ms] = mesyl phosphoramidate linkage; e = 2'-O-(2-methoxyethyl) (MOE); k = constrained ethyl (cEt); [5mC] = 5-methylcytosine; d = 2'-deoxy (DNA)

substance	testedOn	displayUnit	APOE RNA (% control) Spinal Cord
1736528 (e[5mC]*eT*eT*eG*eG*eTdG[ms]dA[ms]dA[ms]dT*d[5mC]*dT*dT*dT*dA[ms]dT*kT*eA*eA*eA; antisense) [Compound 1736528]	human APOE RNA	% control	56
1736532 (e[5mC]*eT*eT*eG*kG*kTdG[ms]dA[ms]dA[ms]dT*d[5mC]*dT*dT*dT*dA[ms]dT*eT*eA*eA*eA; antisense) [Compound 1736532]	human APOE RNA	% control	38
1736536 (e[5mC]*eT*eT*eG*kGkT*dG[ms]dA[ms]dA[ms]dT*d[5mC]*dT*dT*dT*dA[ms]dT*eT*eA*eA*eA; antisense) [Compound 1736536]	human APOE RNA	% control	53
1736493 (e[5mC]*eTeT*eG*eG*eT*dG[ms]dA[ms]dA[ms]dT*d[5mC]*dT*dT*dT*dA[ms]dT*kT*kA*eA*eA; antisense) [Compound 1736493]	human APOE RNA	% control	51
1693105: 6-10-4 MOE gapmer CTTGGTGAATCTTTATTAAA, linkages sosssszzzssssszssss (e[5mC]*eTeT*eG*eG*eT*dG[ms]dA[ms]dA[ms]dT*d[5mC]*dT*dT*dT*dA[ms]dT*eT*eA*eA*eA) [compound 1693105]	human APOE RNA	% control	87
1693102: 6-10-4 MOE gapmer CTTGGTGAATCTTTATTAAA, linkages ssssoszzzssssszssss (e[5mC]*eT*eT*eG*eGeT*dG[ms]dA[ms]dA[ms]dT*d[5mC]*dT*dT*dT*dA[ms]dT*eT*eA*eA*eA) [compound 1693102]	human APOE RNA	% control	72
1736534 (e[5mC]*eT*eT*eG*eGeT*dG[ms]dA[ms]dA[ms]dT*d[5mC]*dT*dT*dT*dA[ms]dT*kT*kA*eA*eA; antisense) [Compound 1736534]	human APOE RNA	% control	55
1736513 (e[5mC]*eTeT*eG*eG*kT*dG[ms]dA[ms]dA[ms]dT*d[5mC]*dT*dT*dT*dA[ms]dT*eT*eA*eA*eA; antisense) [Compound 1736513]	human APOE RNA	% control	52
1736514 (e[5mC]*eTeT*eG*kG*kT*dG[ms]dA[ms]dA[ms]dT*d[5mC]*dT*dT*dT*dA[ms]dT*eT*eA*eA*eA; antisense) [Compound 1736514]	human APOE RNA	% control	54
1736492 (e[5mC]*eTeT*eG*eG*eT*dG[ms]dA[ms]dA[ms]dT*d[5mC]*dT*dT*dT*dA[ms]dT*kT*eA*eA*eA; antisense) [Compound 1736492]	human APOE RNA	% control	46

====

# key: entry, value: APOE RNA (% UTC) 5 nM
- System: human APOE RNA
- testSummary: Dose-dependent inhibition of human APOE RNA in HepG2 cells, electroporation, 50,000 cells per well, RT-PCR normalized to GAPDH (Example 4, Tables 8-10)
- Type: cell-based
- experimentalSetup: HepG2 cells, electroporation, 24-hour treatment, 5 nM, Table 8
Strand notation (5' to 3'): a small letter for the sugar, then the base; units joined by * are phosphorothioate-linked, units joined directly phosphodiester-linked; [ ] holds rarer units or linkages, { } end groups; capitals alone tell only the bases. [ms] = mesyl phosphoramidate linkage; e = 2'-O-(2-methoxyethyl) (MOE); k = constrained ethyl (cEt); [5mC] = 5-methylcytosine; d = 2'-deoxy (DNA)

substance	testedOn	APOE RNA (% UTC) 5 nM
1785599: modified oligonucleotide complementary to human APOE RNA (k[5mC]*kT*kT*dG[ms]dG[ms]dT[ms]dG[ms]dA[ms]dA[ms]dT[ms]d[5mC]*dT*dT*dT*dA*dT*kT*kA*dA[ms]kA; antisense) [compound 1785599]	human APOE RNA	116
^mCksTksTksGdzGdzTdzGdzAdzAdzTds^mCdsTdsTdsTdsAdsTdsTksAksAdzAk (antisense k[5mC]*kT*kT*dG[ms]dG[ms]dT[ms]dG[ms]dA[ms]dA[ms]dT*d[5mC]*dT*dT*dT*dA*dT*kT*kA*dA[ms]kA) [Compound No. 1785602]	human APOE RNA	96
Aes^mCeoTeoTesGesGksTdsGdzAdzAdzTds^mCdsTdsTdsTdsAdzTksTksAesAe (eA*e[5mC]eTeT*eG*kG*dT*dG[ms]dA[ms]dA[ms]dT*d[5mC]*dT*dT*dT*dA[ms]kT*kT*eA*eA) [Compound No. 1757576]	human APOE RNA	86
1778114: modified oligonucleotide complementary to human APOE RNA (eA*e[5mC]eTeTkG*kG*dT*dG[ms]dA[ms]dA*dT*d[5mC]*dT*dT*dT*dA[ms]eTeT*eA*eA; antisense) [compound 1778114]	human APOE RNA	78
1778130: modified oligonucleotide complementary to human APOE RNA (eA*e[5mC]eTeTeG*kG*dT*dG[ms]dA[ms]dA*dT*d[5mC]*dT*dT*dT*dA[ms]kTkT*eA*eA; antisense) [compound 1778130]	human APOE RNA	100
1785598: modified oligonucleotide complementary to human APOE RNA (k[5mC]*kT*kT*dG[ms]dG[ms]dT[ms]dG[ms]dA[ms]dA[ms]dT*d[5mC]*dT*dT*dT*dA*dT[ms]kT*kA*dA[ms]kA; antisense) [compound 1785598]	human APOE RNA	112
1778129: modified oligonucleotide complementary to human APOE RNA (eA*e[5mC]eTeTeG*kG*dT*dG[ms]dA[ms]dA*dT*d[5mC]*dT*dT*dT*dA[ms]kT*kT*eA*eA; antisense) [compound 1778129]	human APOE RNA	124
1778123: modified oligonucleotide complementary to human APOE RNA (eA*e[5mC]eTeTeG*eG*dT*dG[ms]dA[ms]dA*dT*d[5mC]*dT*dT*dT*dA[ms]kTkT*eA*eA; antisense) [compound 1778123]	human APOE RNA	79

====

- System: human APOE RNA
- testSummary: Potency (dose response, ED50) in APOE C57BL/6NTac-Apoeem7250 knock-in mice, 8 weeks (Example 15)
- Assay type: in vivo
- experimentalSetup: cortex, ICV dose 10 μg
Strand notation (5' to 3'): a small letter for the sugar, then the base; units joined by * are phosphorothioate-linked, units joined directly phosphodiester-linked; [ ] holds rarer units or linkages, { } end groups; capitals alone tell only the bases. [ms] = mesyl phosphoramidate linkage; e = 2'-O-(2-methoxyethyl) (MOE); k = constrained ethyl (cEt); [5mC] = 5-methylcytosine; d = 2'-deoxy (DNA)

substance	APOE RNA (% control) Cortex
Aes^mCeoTeoTesGesGksTdsGdzAdzAdzTds^mCdsTdsTdsTdsAdzTksTksAesAe (eA*e[5mC]eTeT*eG*kG*dT*dG[ms]dA[ms]dA[ms]dT*d[5mC]*dT*dT*dT*dA[ms]kT*kT*eA*eA) [Compound No. 1757576]	93 % control
^mCksTksTksGdzGdzTdzGdzAdzAdzTds^mCdsTdsTdsTdsAdsTdsTksAksAdzAk (antisense k[5mC]*kT*kT*dG[ms]dG[ms]dT[ms]dG[ms]dA[ms]dA[ms]dT*d[5mC]*dT*dT*dT*dA*dT*kT*kA*dA[ms]kA) [Compound No. 1785602]	95 % control
1785599: modified oligonucleotide complementary to human APOE RNA (k[5mC]*kT*kT*dG[ms]dG[ms]dT[ms]dG[ms]dA[ms]dA[ms]dT[ms]d[5mC]*dT*dT*dT*dA*dT*kT*kA*dA[ms]kA; antisense) [compound 1785599]	94 % control
TezTeoGeoGksTdsGdzAdzAdzTds^mCdsTdsTdsTdsAdzTksTksAesAesAes^mCe (antisense eT[ms]eTeGkG*dT*dG[ms]dA[ms]dA[ms]dT*d[5mC]*dT*dT*dT*dA[ms]kT*kT*eA*eA*eA*e[5mC]) [Compound No. 1809814]	97 % control
Aks^mCeoTeoTesGesGksTdsGdzAdzAdzTds^mCdsTdsTdsTdsAdzTksTksAesAe (kA*e[5mC]eTeT*eG*kG*dT*dG[ms]dA[ms]dA[ms]dT*d[5mC]*dT*dT*dT*dA[ms]kT*kT*eA*eA) [Compound No. 1809635]	95 % control
